Listed compounds paired with reported cytotoxicity at 70.5 h
- PROCEDURE SUMMARY: Human HepG2 cell viability assay in 384 well format
- Assay type: toxicity, cell-based
- Parameters: dose 125 nL, time 70.5 hour; concentration not given beside the values
- CONDITIONS USED: HepG2 cells, read-out: Inhibition
Give just the number in %; leave the unit off.

# annotated cases, reported cytotoxicity at 70.5 h shown
>>> endpoint_value("Cc1noc(C)c1C(=O)NCC1CCCCN1Cc1ccccc1 (configuration not stated)")
-1.55
>>> endpoint_value("CN(Cc1cccc(C#N)c1)c1ncc(C(N)=O)cc1Cl")
-8.78
>>> endpoint_value("Cc1nn(C)c(C)c1C1COCCN1C(=O)c1n[nH]c2ccccc12 (configuration not stated)")
-10.8
>>> endpoint_value("Cc1nccn1C1CCCN(C(=O)c2cccc(S(C)(=O)=O)c2)C1 (configuration not stated)")
-11.1
>>> endpoint_value("Cc1ccc(F)cc1-n1c(CN(C)S(C)(=O)=O)n[nH]c1=O")
-8.73

What does the data say about its cytotoxicity at 70.5 h? Entry: CCCN(CC)c1cc(C2CCNCC2)nc(C)n1
26.5

---

- PROCEDURE SUMMARY: Human HepG2 cell viability assay in 384 well format
- Type: toxicity, cell-based
- Parameters: dose 125 nL, time 70.5 hour; concentration not given beside the values
- CONDITIONS USED: HepG2 cells, read-out: Inhibition
Listed molecules paired with reported cytotoxicity at 70.5 h
Give just the number in %; leave the unit off.

# annotated cases, reported cytotoxicity at 70.5 h shown
>>> endpoint_value("C=Cn1ncc(CN2C[C@@H]3C[C@@H](O)CN3C[C@H]2Cc2ccccc2)c1C")
-5.5
>>> endpoint_value("O=C(CC1CCCO1)NCc1ccccc1Cn1cncn1 (stereo not given)")
-3.75
>>> endpoint_value("CCc1ncc2c(n1)CN(C(=O)COC)C2")
-4.18
>>> endpoint_value("CCc1ccc2nc(C)cc(C(=O)NC3CCNC3=O)c2c1 (stereo not given)")
0.829
>>> endpoint_value("CC(NC(=O)Nc1cccnc1N1CCOCC1)c1ccncc1 (stereo not given)")
6.43
>>> endpoint_value("CCN(Cc1noc(C2CC2)n1)C(=O)c1onc2ccccc12")
-8.65
>>> endpoint_value("CC(C)CSCCN1CCN(S(C)(=O)=O)CC1")
0.763
>>> endpoint_value("NC(=O)CC1CCN(c2cncc(OCc3ccccc3)n2)CC1")
-5.14
>>> endpoint_value("O=C1CCC(c2nc(C3CCN(C(=O)Cc4cccs4)CC3)no2)N1 (stereo not given)")
-6.58
>>> endpoint_value("CC(C)N1CC2(CCCN(Cc3noc(C4CCCC4)n3)C2)CCC1=O (stereo not given)")
3.06

What does the data say about its cytotoxicity at 70.5 h? Entry: CCn1cc(CNc2ccc(F)c(F)c2)cn1
8.3

Do the same for CCOc1ccc(OCC)c(NCc2cc(C)on2)c1 please
8.35

Do the same for N#Cc1cccc(OC23CCCN(CC2)C3)c1 (stereo not given) please
13.6

Do the same for CCOC1CCN(C(=O)NCCc2ccn(-c3ccccc3)n2)CC1 please
-2.77

Do the same for Cc1nc(CN2CCC3(CCCN(Cc4cccnc4)C3)C2=O)cs1 (stereo not given) please
26.7

Do the same for O=C(CC1CC1)N1CCn2cc(Cn3cccn3)nc2C1 please
-15.8

Do the same for COc1ccc(Cl)cc1CS(=O)(=O)Cc1noc(C)n1 please
12.6

Do the same for CNCc1n[nH]c(=O)n1CC1CCCCC1 please
-5.1

Do the same for Cn1cc(CNC(=O)C2COCC(=O)N2Cc2ccccc2)cn1 (stereo not given) please
2.62

Do the same for Cc1cn[nH]c1C1CCCCN1C(=O)CCc1c(C)n[nH]c1C (stereo not given) please
-2.55

Do the same for O=C(C1CCC1)N1CCc2[nH]cnc2C12CCN(C1CCOCC1)CC2 please
-0.358

Do the same for CCC(C(=O)N(C)C)N1CCC(c2nccn2Cc2cscn2)CC1 (stereo not given) please
-10

Do the same for Cc1ccc(-c2nnc(CNCCn3cc(C)cn3)o2)cc1 please
-18.3

Do the same for Cc1cnn(-c2cccc(N3CCCCC3)n2)c1 please
15.7

Do the same for COc1cc2c(nn1)CCN(CC(O)COc1ccc(C#N)cc1)C2 (stereo not given) please
17.8

---

Listed compounds paired with reported cytotoxicity at 70.5 h
- PROCEDURE SUMMARY: Human HepG2 cell viability assay in 384 well format
- Type: toxicity, cell-based
- Parameters: dose 125 nL, time 70.5 hour; concentration not given beside the values
- CONDITIONS USED: HepG2 cells, read-out: Inhibition
Give just the number in %; leave the unit off.

# annotated cases, reported cytotoxicity at 70.5 h shown
>>> endpoint_value("CCc1nc2n(n1)CC(NCc1cnn(-c3ccccc3)n1)CC2 (stereo unspecified)")
-9.79
>>> endpoint_value("COc1ccc2nc3n(c2c1)[C@@H](CNC(=O)c1cncnc1)COC3")
-2.36
>>> endpoint_value("NC(=O)C1CCCN(c2ccc(CNC(=O)c3cnsn3)cc2)C1 (stereo unspecified)")
-7.99
>>> endpoint_value("Cn1cc(C(=O)N2CCN(c3ccc(F)cc3)CC2)ccc1=O")
2.77
>>> endpoint_value("CS(=O)(=O)N1CCC(c2nnc(Cn3ccnc3)n2C2CC2)CC1")
-3.52

Proceed to the following item.
What does the data say about its cytotoxicity at 70.5 h? Entry: Cc1c(S(=O)(=O)NCC(C)Cn2cc(Cl)cn2)cnn1C (stereo unspecified)
1.36

---

Listed compounds paired with reported cytotoxicity at 70.5 h
- PROCEDURE SUMMARY: Human HepG2 cell viability assay in 384 well format
- Format: toxicity, cell-based
- Parameters: dose 125 nL, time 70.5 hour; concentration not given beside the values
- CONDITIONS USED: HepG2 cells, read-out: Inhibition
Give just the number in %; leave the unit off.

# annotated cases, reported cytotoxicity at 70.5 h shown
>>> endpoint_value("Cn1ccnc1C(=O)N[C@@H]1CN(Cc2cccs2)[C@@H]2CCCO[C@@H]21")
-14.1
>>> endpoint_value("COc1ccc(S(=O)(=O)Cc2cc(C)on2)cc1")
-4.34
>>> endpoint_value("Cc1cc(C(=O)NCc2ccc(F)cc2)c2c(C3CCCN3)noc2n1 (stereo unspecified)")
-6.52
>>> endpoint_value("NC(=O)C1(c2cnccn2)CCCN1Cc1ccccn1 (stereo unspecified)")
-3.76
>>> endpoint_value("Cc1cccnc1CC(C)N(C)Cc1cccs1 (stereo unspecified)")
-13.2

What does the data say about its cytotoxicity at 70.5 h? Entry: Cc1cc(NC(=O)NC2CCN(C(C)C)CC2)c2ncccc2c1
-85.3

---

- PROCEDURE SUMMARY: Human HepG2 cell viability assay in 384 well format
- Format: toxicity, cell-based
- Set-up: dose 125 nL, time 70.5 hour; concentration not given beside the values
- CONDITIONS USED: HepG2 cells, read-out: Inhibition
MEASURED ATTRIBUTE: cytotoxicity at 70.5 h
Express your answer as a number followed by its unit.

>>> endpoint_value("Nc1nc2c(c3c1C(=O)NC3=O)CCCC2")
"-9.66%"
>>> endpoint_value("Cc1n[nH]cc1CNc1ccc2c(c1)CN(C(=O)OC(C)(C)C)CC2")
"-6.16%"
>>> endpoint_value("CCCN1CCC=C(C2c3nc[nH]c3CCN2C(=O)c2ccco2)C1 (centres undefined)")
"22.4%"
>>> endpoint_value("Cc1cc(C(=O)N2CCCC(n3cncn3)C2)nn1C (centres undefined)")
"-10.8%"
>>> endpoint_value("COc1ccccc1CCNC(=O)N1CCCC(c2nncn2C)C1 (centres undefined)")
"-1.17%"
>>> endpoint_value("O=C(c1ccc(S(=O)(=O)NCCc2ccncc2)cc1)N1CCCC1")
"-19.6%"
>>> endpoint_value("CS(=O)(=O)c1ccc(CNCC2CCN(CCO)CC2)cc1")
"18.2%"
>>> endpoint_value("Cc1cc2ccccc2n1CCC(=O)N1CCC[C@H]1C(N)=O")
"-6.97%"

What does the data say about its cytotoxicity at 70.5 h? Entry: Cc1ccc(C(=O)Nc2ccc(N(C)C)cn2)n1C
7.03%

Do the same for Cc1noc([C@@H]2C[C@H]3OCC[C@H]3N(S(=O)(=O)c3cccnc3)C2)n1 please
-8.05%

Do the same for Cc1nnc(Cn2cc(I)cc(C)c2=O)o1 please
3.35%

Do the same for Cn1cc(CN2C[C@@H]3CCC[C@@H](OCc4cccnc4)[C@@H]3C2)cn1 please
3.45%

Do the same for Cc1c[nH]c(CN2CCOC(c3ccc(Cl)c(Cl)c3)C2)c(C)c1=O (centres undefined) please
5.88%

Do the same for COc1ccc(CNC(C)c2cnn(C)c2)cc1OC1CCCC1 (centres undefined) please
-3.45%

---

- PROCEDURE SUMMARY: Human HepG2 cell viability assay in 384 well format
- Assay type: toxicity, cell-based
- Design: dose 125 nL, time 70.5 hour; concentration not given beside the values
- CONDITIONS USED: HepG2 cells, read-out: Inhibition
Listed compounds paired with reported cytotoxicity at 70.5 h
Give just the number in %; leave the unit off.

>>> endpoint_value("CCC(=O)N1CCC(c2ncc(C(=O)Nc3ccccc3)c(C)n2)C1 (stereo not drawn)")
-3.38
>>> endpoint_value("COCCOC[C@]1(CNCc2ccc(OC)cc2)C[C@@H](O)[C@@H](O)C1")
-7.9
>>> endpoint_value("COc1nn(C)cc1C(=O)N1CCC(c2nnc(C(C)C)o2)CC1")
-4.14
>>> endpoint_value("O=C(NCCc1ccccn1)[C@@]12CCO[C@@H]1CCN(CC1CC1)C2")
-5.28
>>> endpoint_value("CCN1CC2(CCN(Cc3nc(CSC)no3)CC2)CC1=O")
23.5

What does the data say about its cytotoxicity at 70.5 h? Entry: Cc1cnn(CC2CCCN2CC(=O)N(C)Cc2ccc(C)o2)c1 (stereo not drawn)
-7.64

Do the same for CCn1cc(NC(=O)NCC(C)(C)N2CCc3ccccc3C2)cn1 please
13.8

Do the same for CCn1ccnc1C1CCCN(C(=O)c2sc(C)nc2C)C1 (stereo not drawn) please
-7.2
